Target: UniProt Q95PM0
Sequence (Q95PM0 entry or part of it): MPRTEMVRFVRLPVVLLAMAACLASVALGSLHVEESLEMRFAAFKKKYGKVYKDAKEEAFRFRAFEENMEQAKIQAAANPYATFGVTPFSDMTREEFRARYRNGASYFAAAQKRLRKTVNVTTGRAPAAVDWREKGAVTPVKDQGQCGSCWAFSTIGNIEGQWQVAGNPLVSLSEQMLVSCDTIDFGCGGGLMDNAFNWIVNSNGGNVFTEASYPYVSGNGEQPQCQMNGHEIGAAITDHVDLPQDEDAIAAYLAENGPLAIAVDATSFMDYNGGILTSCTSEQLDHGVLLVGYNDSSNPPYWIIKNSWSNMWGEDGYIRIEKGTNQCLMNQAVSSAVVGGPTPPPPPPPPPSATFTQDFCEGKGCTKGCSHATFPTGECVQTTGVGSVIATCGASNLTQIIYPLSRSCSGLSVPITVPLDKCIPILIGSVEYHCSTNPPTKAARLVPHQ
Experiment: Cysteine protease inhibition, progress curve method, rhodazain
Assay type: biochemical, Trypanosoma brucei rhodesiensi
Details: Rhodazain Ki (nM), 10 uM Cbz-Leu-Arg-AMC, 100 mM Na acetate pH 5.5, 5 mM cysteine
Property Label: Ki (nM)
Write the answer as a number in nM, unit excluded.

Dear colleague, I am looking for the recorded Ki of the following compound: CC(C)CC(NC(=O)c1ccc2c(c1)OCO2)C(=O)N[C@@H]1CCCN(S(=O)(=O)c2cccc[n+]2[O-])CC1=O (single isomer, unassigned)
5.4

Dear colleague, I am looking for the recorded Ki of the following compound: CC(C)C[C@@H](NC(=O)c1ccc(-c2cccc(C(F)(F)F)c2)o1)C(=O)NC1CCCN(C(=O)c2cccc[n+]2[O-])CC1=O (stereo partly drawn)
11
